Test system: PC3
Test: 14C-Thymidine incorporation assay, PC3
Format: cell-based
Details: Homo sapiens, PC-3; PC3, Prostate; 72 h + 24 h 14C-Thymidine
Property: IC50

Value lookup for IC50; key = CCC(C)C1C(=O)NC(Cc2cc(Cl)c(O)c(Cl)c2)C(=O)NC(C(C)(C)O)C(=O)OC(c2ccccc2)C(C)/C=C/C=C(\C)C(OC)CC2OC2(C)C(=O)N1C (stereo not shown)
0.0044 to 0.016 µM

====

Test system: HL60
Test: ATP viability assay (CellTiterGlo), HL60
Format: cell-based
Conditions: Homo sapiens, HL-60; HL60, Leukemia; 96 h incubation
pIC50: −log10 of the molar value.
Property: pIC50

Value lookup for pIC50; key = CCC(C)C1C(=O)NC(Cc2cc(Cl)c(O)c(Cl)c2)C(=O)NC(C(C)(C)O)C(=O)OC(c2ccccc2)C(C)/C=C/C=C(\C)C(OC)CC2OC2(C)C(=O)N1C (stereo not shown)
7.82 to 8.02

The measurements presented in this section are drawn from patent US20110306563A1.
